Item-by-item account of melting point

# compound, melting point
measured = [
    ("C[C@H](CC=C(c1ccccc1)c1ccccc1)[C@H]1CC[C@H]2[C@@H]3C(O)CC4CC(O)CC[C@]4(C)[C@H]3CC(O)[C@]12C (stereo not given in full)", "220 °C"),
    ("O=C1OC(=O)C2CC12 (stereo not given)", "54 to 60 °C"),
    ("CN(c1c(F)c(F)c(F)c(F)c1F)[N+](=O)[O-]", "39.5 °C"),
    ("CC(C)(C1CCCCC1)C1CCCCC1", "15.6 °C"),
    ("CC(=O)Nc1ccc(C)c(NS(=O)(=O)C(F)(F)F)c1", "176 °C"),
    ("CC1=C(C(=O)OCc2ccccc2)C(c2ccc(O)c(O)c2)NC(=O)N1 (stereo not given)", "214 to 216 °C"),
    ("CCCCCCCCCCCCCCCCCCCCCCCCCCCCCC[Si](Cl)(Cl)Cl", "60 to 80 °C"),
    ("O=CN(C=O)C(N(C=O)C=O)N(C=O)C=O", "145 °C"),
    ("Cc1cc(Cl)ncc1N", "69 to 73 °C"),
    ("O=C(Nc1ccc(C=Cc2ccc(NC(=O)c3ccccc3)cc2)cc1)c1ccccc1", "352 °C"),
    ("CC(=NO)c1ccccc1", "60 °C"),
    ("CCCCCCCSCCCCCCC", "70 °C"),
    ("CN(C)c1ccccc1C(=O)O", "72 °C"),
    ("C1=CC=CC=CC=C1", "-4.7 °C"),
    ("CCCCCCCCCCCCCCCCOP(=O)(O)OCCCCCCCCCCCCCCCC", "74.5 °C"),
    ("Cc1cc(C)c(-c2cc(C)[nH]n2)c(C)c1", "128 to 130 °C"),
    ("O=C(c1ccc2c3c(cccc13)CC2)C(O)c1ccccc1 (stereo not given)", "138 °C"),
    ("CCOC(=O)/C(C#N)=C/c1ccc(-c2ccc(Cl)cc2)o1", "140 °C"),
    ("Cc1ccc(C(=O)O)cc1O", "210 °C"),
    ("Oc1cccc(Cl)n1", "130 °C"),
    ("C=CCC1=C(O)C2=CC=C3C(C)=C(C)C(=O)CC3(C)C2=C(O)C1=O (stereo not given)", "171 °C"),
    ("Nc1nc(=O)c2[nH]c(=S)[nH]c2[nH]1", "300 °C"),
    ("FC(F)(F)c1nnc(S)n1/N=C/c1ccccc1", "233 °C"),
    ("Cc1ccc(C)c(N/N=C(/C#N)c2nc(C)c(/N=N/c3ccccc3)s2)c1", "201 to 203 °C"),
    ("O=C1C=C(O)c2cccc3cccc1c23", "261 to 264 °C"),
]
